Property: mass density; scope: individual compounds
Details: 303.15 K; 101.3 kPa; Liquid; Pycnometric method
// return numeric value only (unit: kg/m3, not printed)

See these solved cases before continuing.
CN(C)c1ccccc1 [N,N-dimethylaniline]	948.4
CC(C)OC(C)C [diisopropyl ether]	712.9

Enquiry: For the compound shown here, C1CCOC1 [tetrahydrofuran] , give the reported mass density.
Return: 876.9

Enquiry: For the compound shown here, CCN(CC)c1ccccc1 [N,N-diethylaniline] , give the reported mass density.
Return: 926.2

---

Settings: 323.15 K; 101.3 kPa; Liquid; Linear variable-path acoustic interferometer
Property: speed of sound; scope: individual compounds
// return numeric value only (unit: m/s, not printed)

See these solved cases before continuing.
CCN(CC)c1ccccc1 [N,N-diethylaniline]	1358
CN(C)c1ccccc1 [N,N-dimethylaniline]	1393
CC(C)OC(C)C [diisopropyl ether]	889

API: the following record is the query input.
Enquiry: For the compound shown here, C1CCOC1 [tetrahydrofuran] , give the reported speed of sound.
Return: 1165

---

Property: mass density; scope: individual compounds
Conditions: 323.15 K; 101.3 kPa; Liquid; Pycnometric method
// return numeric value only (unit: kg/m3, not printed)

Enquiry: For the compound shown here, C1CCOC1 [tetrahydrofuran] , give the reported mass density.
Return: 854.8

Enquiry: For the compound shown here, CC(C)OC(C)C [diisopropyl ether] , give the reported mass density.
Return: 691.9

Enquiry: For the compound shown here, CN(C)c1ccccc1 [N,N-dimethylaniline] , give the reported mass density.
Return: 931.5

Enquiry: For the compound shown here, CCN(CC)c1ccccc1 [N,N-diethylaniline] , give the reported mass density.
Return: 909.2

---

Property: speed of sound; scope: individual compounds
Conditions: 313.15 K; 101.3 kPa; Liquid; Linear variable-path acoustic interferometer
// return numeric value only (unit: m/s, not printed)

CN(C)c1ccccc1	1431
CCN(CC)c1ccccc1	1396
C1CCOC1 [tetrahydrofuran]	1207

API: the following record is the query input.
Enquiry: For the compound shown here, CC(C)OC(C)C , give the reported speed of sound.
Return: 932
